- Tested on: E. coli MG1655
- Type: cell-based, Escherichia coli
- Set-up: unit not given here
- Condition Details: Table 11, MHB medium
Readout Name: Minimal inhibitory concentrations (MIC90) MG1655

In: Provide the documented Minimal inhibitory concentrations (MIC90) MG1655 with E. coli MG1655 as the system for CN[C@@H]1[C@H](O)[C@H](NC)[C@H]2O[C@@]3(O)C(=O)C[C@@H](C)O[C@H]3O[C@@H]2[C@H]1O
Out: 6.3-12.5

In: Provide the documented Minimal inhibitory concentrations (MIC90) MG1655 with E. coli MG1655 as the system for CN[C@@H]1[C@@H](O[C@H]2O[C@H](CO)[C@@H](N)[C@H](O)[C@H]2O)OC2C[C@@H](N)[C@@H](O[C@H]3[C@H](O)[C@@H](O)[C@H](N)C[C@@H]3N)OC2[C@@H]1O (stereo partly drawn)
Out: 3.2-6.3

In: Provide the documented Minimal inhibitory concentrations (MIC90) MG1655 with E. coli MG1655 as the system for CC1(C)S[C@@H]2[C@H](NC(=O)[C@H](N)c3ccccc3)C(=O)N2[C@H]1C(=O)O
Out: 1.6-3.2
